Biological target: 20S proteasome (Oryctolagus cuniculus, UniProt G1T4Q9)
Sequence (G1T4Q9 60-263): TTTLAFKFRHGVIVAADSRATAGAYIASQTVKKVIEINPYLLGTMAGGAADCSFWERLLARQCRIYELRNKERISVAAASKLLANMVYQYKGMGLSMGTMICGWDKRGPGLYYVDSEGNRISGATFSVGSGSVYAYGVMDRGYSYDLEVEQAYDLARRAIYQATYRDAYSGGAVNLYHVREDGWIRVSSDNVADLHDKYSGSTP
Non-standard residues stand in square brackets, D forms with d. Residues, ends and D or L forms follow the SMILES beside them. *: point of attachment. Tyr(3,5-Br2) = N[C@@H](Cc1cc(Br)c(O)c(Br)c1)C(=O)O; Tyr(3,5-I2) = N[C@@H](Cc1cc(I)c(O)c(I)c1)C(=O)O; Phe(4-Cl) = N[C@@H](Cc1ccc(Cl)cc1)C(=O)O; 1Nal = N[C@@H](Cc1cccc2ccccc12)C(=O)O; Phg = N[C@H](C(=O)O)c1ccccc1; Nva = CCC[C@H](N)C(=O)O; Cbz = O=C(OCc1ccccc1)*
METRIC_NAME: pKi
pKi is defined as minus the log10 of a concentration measured in mol/L.

Sample answers from the record:
CCC[C@@H](C=O)NC(=O)[C@H](CC(C)C)NC(=O)[C@H](Cc1cccc2ccccc12)NC(=O)OCc1ccccc1 [MG 142] (Cbz-[1Nal]-Leu-[Nva]-aldehyde)	9.52
CC(C)C[C@H](NC(=O)OCc1ccccc1)C(=O)N[C@@H](CC(C)C)C(=O)N[C@H](C=O)Cc1cc(Br)c(O)c(Br)c1 [MG 160] (Cbz-Leu-Leu-[Tyr(3,5-Br2)]-aldehyde)	7.29
CC(C)C[C@H](NC(=O)OCc1ccccc1)C(=O)N[C@@H](CC(C)C)C(=O)N[C@H](C=O)Cc1ccc(Cl)cc1 [MG 158] (Cbz-Leu-Leu-[Phe(4-Cl)]-aldehyde)	8.15
CC(C)C[C@H](NC(=O)OCc1ccccc1)C(=O)N[C@@H](CC(C)C)C(=O)N[C@H](C=O)c1ccccc1 [MG 133] (Cbz-Leu-Leu-[Phg]-aldehyde)	6.33

Alright, here's another molecule for you.
*Q* I would be grateful if you could share the reported pKi for CC(C)C[C@H](NC(=O)OCc1ccccc1)C(=O)N[C@@H](CC(C)C)C(=O)N[C@H](C=O)Cc1cc(I)c(O)c(I)c1 [MG 161] (Cbz-Leu-Leu-[Tyr(3,5-I2)]-aldehyde) .
*A* 7.19

----------
Molecular target: 20S Proteasome (Oryctolagus cuniculus)
Experiment: MG 101 inhibition of muscle 20S proteasome (Table IV)
Format: biochemical
Details: enzyme preparation: 20S Proteasome (muscle)
Non-standard residues stand in square brackets, D forms with d. Residues, ends and D or L forms follow the SMILES beside them. Nle = CCCC[C@H](N)C(=O)O
METRIC_NAME: pKi
pKi is defined as minus the log10 of a concentration measured in mol/L.

*Q* I would be grateful if you could share the reported pKi for CCCC[C@@H](C=O)NC(=O)[C@H](CC(C)C)NC(=O)[C@H](CC(C)C)NC(C)=O [MG 101, Ac-Leu-Leu-Nle-H] (Ac-Leu-Leu-[Nle]-aldehyde) .
*A* 5.15

----------
Molecular target: 20S proteasome (Oryctolagus cuniculus)
Non-standard residues stand in square brackets, D forms with d. Residues, ends and D or L forms follow the SMILES beside them. *: point of attachment. 1Nal = N[C@@H](Cc1cccc2ccccc12)C(=O)O; 2Nal = N[C@@H](Cc1ccc2ccccc2c1)C(=O)O; tBuAla = CC(C)(C)C[C@H](N)C(=O)O; Pra = C#CC[C@H](N)C(=O)O; Cbz = O=C(OCc1ccccc1)*
METRIC_NAME: Ki (nM)
Numbers only here, please. The scale is nM.

Sample answers from the record:
CC(C)C[C@H](NC(=O)OCc1ccccc1)C(=O)N[C@@H](CC(C)C)C(=O)N[C@H](C=O)CC(C)(C)C [MG 136] (Cbz-Leu-Leu-[tBuAla]-aldehyde)	1000
CC(C)C[C@H](NC(=O)OCc1ccccc1)C(=O)N[C@@H](CC(C)C)C(=O)N[C@H](C=O)Cc1c[nH]c2ccccc12 [MG 151] (Cbz-Leu-Leu-Trp-aldehyde)	10
COc1ccc(C[C@@H](C=O)NC(=O)[C@H](CC(C)C)NC(=O)[C@H](CC(C)C)NC(=O)OCc2ccccc2)cc1 [MG 152] (Cbz-Leu-Leu-Tyr(Me)-aldehyde)	6
C#CC[C@@H](C=O)NC(=O)[C@H](CC(C)C)NC(=O)[C@H](CC(C)C)NC(=O)OCc1ccccc1 [MG 140] (Cbz-Leu-Leu-[Pra]-aldehyde)	28

Alright, here's another compound for you.
*Q* I would be grateful if you could share the reported Ki for CC(C)C[C@@H](C=O)NC(=O)[C@H](Cc1cccc2ccccc12)NC(=O)[C@H](Cc1ccc2ccccc2c1)NC(=O)OCc1ccccc1 [MG 167] (Cbz-[2Nal]-[1Nal]-Leu-aldehyde) .
*A* 0.015
